The reported numbers originate from patent US8637498B2.

- Measured Target: mutant MGL (Homo sapiens, UniProt Q99685, L169S/L176S)
- Construct: mut-MGLL 11-313 L179S L186S
- Experimental Protocol: MGL ThermoFluor Assay - Mutant
- Assay type: binding
- Assay Context: mutant MGL 0.07 mg/ml, 1,8-ANS dye; read-out: MGL mutant ThermoFluor Kd
Measure: Kd (nM)
Express the result in nM but write the number alone.

Worked cases, Kd given:
>  <Compound Smiles>
O=C(c1ccc2c(ccn2-c2ccc(C(F)(F)F)cc2)c1)N1CC(N2CCN(c3ncccn3)CC2=O)C1

>  <Kd / nM>
433

$$$$
>  <Compound Smiles>
O=C(c1ccc2nc(-c3ccccc3)sc2c1)N1CC(N2CCN(c3nccs3)C(=O)C2)C1

>  <Kd / nM>
994

$$$$

Qu. Requested read-out: Kd. Entry: `O=C(c1ccc2c(ccn2-c2ccc(C(F)(F)F)cc2)c1)N1CC(N2CCN(c3ncccn3)C(=O)C2)C1`
Ans. 39.8

====

Recorded Kd, one value per entry.
- Measured Target: mutant MGL (Homo sapiens, UniProt Q99685, L169S/L176S)
- Construct: mut-MGLL 11-313 L179S L186S
- Experimental Protocol: MGL ThermoFluor Assay - Mutant
- Assay type: binding
- Assay Context: mutant MGL; compound concentration measured by qNMR; read-out: MGL mutant ThermoFluor qKd (using qNMR conc.)
Express the result in µM but write the number alone.

Qu. Form: Entry = O=C(c1ccc2c(ccn2-c2ccc(F)cc2)c1)N1CC(N2CCN(c3ncccn3)C(=O)C2)C1 [Cpd 4] | System = mutant MGL (Homo sapiens, UniProt Q99685, L169S/L176S) | Kd = ____
Ans. 0.943

Qu. Form: Entry = O=C(c1sc2cc(C(F)(F)F)ccc2c1Cl)N1CC(N2CCN(c3ncccn3)C(=O)C2)C1 [Cpd 8] | System = mutant MGL (Homo sapiens, UniProt Q99685, L169S/L176S) | Kd = ____
Ans. 0.165

====

- Measured Target: MGL (Rattus norvegicus, UniProt Q8R431)
- Construct: one g rat brain was homogenized; from tissue; host or cells: rat brain homogenate
- Experimental Protocol: 2-AG Accumulation Assay in rat brain homogenate
- Format: biochemical
- Assay Context: compound @1 μM, 2-AG accumulation as percent of vehicle
Recorded Rat Brain 2AG % VehCntrl (%) @1 μM, one value per entry.
Express the result in % but write the number alone.

Worked cases, Rat Brain 2AG % VehCntrl (%) @1 μM given:
>  <Compound Smiles>
O=C(c1sc2cc(C(F)(F)F)ccc2c1Cl)N1CC(N2CCN(c3cscn3)C(=O)C2)C1

>  <Assay Value>
155

$$$$
>  <Compound Smiles>
O=C(c1ccc2c(ccn2-c2ccc(F)cc2)c1)N1CC(N2CCN(c3cscn3)C(=O)C2)C1

>  <Assay Value>
302

$$$$
>  <Compound Smiles>
O=C(c1ccc2c(ccn2-c2ccc(F)cc2)c1)N1CC(N2CCN(c3nccs3)C(=O)C2)C1

>  <Assay Value>
316

$$$$

Qu. Form: Entry = `O=C(c1ccc2c(ccn2-c2ccc(C(F)(F)F)cc2)c1)N1CC(N2CCN(c3ncccn3)CC2=O)C1` | System = MGL (Rattus norvegicus, UniProt Q8R431) | Rat Brain 2AG % VehCntrl (%) @1 μM = ____
Ans. 155

Qu. Form: Entry = `O=C(c1ccc2c(ccn2-c2ccc(C(F)(F)F)cc2)c1)N1CC(N2CCN(c3ncccn3)C(=O)C2)C1` | System = MGL (Rattus norvegicus, UniProt Q8R431) | Rat Brain 2AG % VehCntrl (%) @1 μM = ____
Ans. 418

====

Recorded pIC50, one value per entry.
- Measured Target: purified wild type MGL (wt-MGLL 6H-11-313) (Homo sapiens)
Schema: pIC50 number; meaning minus log10 of the concentration expressed in molar units.

Worked cases, pIC50 given:
>  <Molecule>
O=C(c1sc2cc(C(F)(F)F)ccc2c1Cl)N1CC(N2CCN(c3cscn3)C(=O)C2)C1 [Cpd 7]

>  <Measured Target>
purified wild type MGL (wt-MGLL 6H-11-313) (Homo sapiens)

>  <pIC50>
7.17

$$$$
>  <Molecule>
O=C(c1sc2cc(C(F)(F)F)ccc2c1Cl)N1CC(N2CCN(c3ncccn3)C(=O)C2)C1 [Cpd 8]

>  <Measured Target>
purified wild type MGL (wt-MGLL 6H-11-313) (Homo sapiens)

>  <pIC50>
6.90

$$$$

Qu. Requested read-out: pIC50. Entry: O=C(c1ccc2nc(-c3ccccc3)sc2c1)N1CC(N2CCN(c3ncccn3)C(=O)C2)C1 [Cpd 10]
Ans. 5.44

Qu. Requested read-out: pIC50. Entry: O=C(c1ccc2c(ccn2-c2ccc(F)cc2)c1)N1CC(N2CCC(=O)N(c3ncccn3)CC2)C1 [Cpd 20]
Ans. 6.61

Qu. Requested read-out: pIC50. Entry: O=C(c1ccc2c(ccn2-c2ccc(F)cc2)c1)N1CC(N2CCN(c3ncccn3)C(=O)C2)C1 [Cpd 4]
Ans. 6.87

Qu. Requested read-out: pIC50. Entry: O=C(c1ccc2c(ccn2-c2ccc(C(F)(F)F)cc2)c1)N1CC(N2CCN(c3ccccc3)C(=O)C2)C1 [Cpd 13]
Ans. 6.04

Qu. Requested read-out: pIC50. Entry: O=C(c1ccc(-c2ccccc2)cc1)N1CC(N2CCN(c3nccs3)C(=O)C2)C1 [Cpd 18]
Ans. 5.78

Qu. Requested read-out: pIC50. Entry: O=C(c1sc2cc(C(F)(F)F)ccc2c1Cl)N1CC(N2CCN(c3ccccc3)C(=O)C2)C1 [Cpd 14]
Ans. 6.65

====

- Measured Target: mutant MGL (Homo sapiens, UniProt Q99685, L169S/L176S)
- Construct: mut-MGLL 11-313 L179S L186S
- Sequence (Q99685 1-303 L169S/L176S): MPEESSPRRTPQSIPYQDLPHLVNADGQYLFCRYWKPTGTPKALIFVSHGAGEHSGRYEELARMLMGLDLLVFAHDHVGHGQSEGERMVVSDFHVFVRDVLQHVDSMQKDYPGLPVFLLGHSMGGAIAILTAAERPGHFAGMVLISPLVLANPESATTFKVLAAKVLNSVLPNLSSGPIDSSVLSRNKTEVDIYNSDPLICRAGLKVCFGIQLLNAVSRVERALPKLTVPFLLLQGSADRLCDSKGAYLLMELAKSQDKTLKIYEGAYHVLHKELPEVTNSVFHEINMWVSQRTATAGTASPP
- Experimental Protocol: MGL ThermoFluor Assay - Mutant
- Type: binding
- Assay Context: mutant MGL 0.07 mg/ml, 1,8-ANS dye; read-out: MGL mutant ThermoFluor Kd
Measure: log10 of Kd (log10 of the value in nM)
In plain terms, each number is the log10 of measured Kd in nM.

Worked cases, log10 of Kd given:
>  <Compound>
O=C(c1ccc(Cc2ccccc2)cc1)N1CC(N2CCN(c3ccccc3)C(=O)C2)C1 [Cpd 1]

>  <log10 of Kd>
3.52

$$$$
>  <Compound>
O=C(c1ccc(-c2ccccc2)cc1)N1CC(N2CCN(c3ccccc3)C(=O)C2)C1 [Cpd 2]

>  <log10 of Kd>
4.29

$$$$

Qu. Form: Entry = O=C(c1ccc2c(ccn2-c2ccc(C(F)(F)F)cc2)c1)N1CC(N2CCN(c3ccccc3)C(=O)C2)C1 [Cpd 13] | System = mutant MGL (Homo sapiens, UniProt Q99685, L169S/L176S) | log10 of Kd = ____
Ans. 3.13

Qu. Form: Entry = O=C(c1sc2cc(C(F)(F)F)ccc2c1Cl)N1CC(N2CCN(c3nccs3)C(=O)C2)C1 [Cpd 11] | System = mutant MGL (Homo sapiens, UniProt Q99685, L169S/L176S) | log10 of Kd = ____
Ans. 1.81

Qu. Form: Entry = O=C(c1cc2ccc(C(F)(F)F)cc2s1)N1CC(N2CCN(c3ncccn3)CC2=O)C1 [Cpd 23] | System = mutant MGL (Homo sapiens, UniProt Q99685, L169S/L176S) | log10 of Kd = ____
Ans. 2.85

Qu. Form: Entry = O=C(c1ccc2c(ccn2-c2ccc(F)c(F)c2)c1)N1CC(N2CCN(c3ccccc3)C(=O)C2)C1 [Cpd 15] | System = mutant MGL (Homo sapiens, UniProt Q99685, L169S/L176S) | log10 of Kd = ____
Ans. 3.29

Qu. Form: Entry = O=C(c1sc2cc(C(F)(F)F)ccc2c1Cl)N1CC(N2CCN(c3ccccc3)C(=O)C2)C1 [Cpd 14] | System = mutant MGL (Homo sapiens, UniProt Q99685, L169S/L176S) | log10 of Kd = ____
Ans. 2.69

====

- Measured Target: mutant MGL (Homo sapiens, UniProt Q99685, L169S/L176S)
- Construct: mut-MGLL 11-313 L179S L186S
- Experimental Protocol: MGL ThermoFluor Assay - Mutant
- Assay type: binding
- Assay Context: mutant MGL; compound concentration measured by qNMR; read-out: MGL mutant ThermoFluor qKd (using qNMR conc.)
Measure: pKd
Schema: pKd number; meaning minus log10 of the concentration expressed in molar units.

Worked cases, pKd given:
>  <Molecule>
O=C(c1ccc(-c2ccccc2)cc1)N1CC(N2CCN(c3nccs3)C(=O)C2)C1 [Cpd 18]

>  <pKd>
5.86

$$$$
>  <Molecule>
O=C(c1ccc2nc(-c3ccccc3)oc2c1)N1CC(N2CCC(=O)N(c3nccs3)CC2)C1 [Cpd 22]

>  <pKd>
8.60

$$$$
>  <Molecule>
O=C(c1ccc(-c2ccccc2)cc1)N1CC(N2CCN(c3ncccn3)C(=O)C2)C1 [Cpd 9]

>  <pKd>
5.25

$$$$
>  <Molecule>
O=C(c1ccc2c(ccn2-c2ccc(F)cc2)c1)N1CC(N2CCC(=O)N(c3nccs3)CC2)C1 [Cpd 21]

>  <pKd>
9.00

$$$$
>  <Molecule>
O=C(c1sc2cc(C(F)(F)F)ccc2c1Cl)N1CC(N2CCC(=O)N(c3ncccn3)CC2)C1 [Cpd 17]

>  <pKd>
7.28

$$$$
>  <Molecule>
O=C(c1ccc2c(ccn2-c2ccc(F)cc2)c1)N1CC(N2CCN(c3nccs3)C(=O)C2)C1 [Cpd 5]

>  <pKd>
6.77

$$$$
>  <Molecule>
O=C(c1ccc2nc(-c3ccccc3)sc2c1)N1CC(N2CCN(c3ncccn3)C(=O)C2)C1 [Cpd 10]

>  <pKd>
4.97

$$$$
>  <Molecule>
O=C(c1ccc2nc(-c3ccccc3)oc2c1)N1CC(N2CCN(c3nccs3)C(=O)C2)C1 [Cpd 16]

>  <pKd>
5.86

$$$$

Qu. Requested read-out: pKd. Entry: O=C(c1sc2cc(C(F)(F)F)ccc2c1Cl)N1CC(N2CCN(c3cscn3)C(=O)C2)C1 [Cpd 7]
Ans. 6.73

Qu. Requested read-out: pKd. Entry: O=C(c1sc2cc(C(F)(F)F)ccc2c1Cl)N1CC(N2CCC(=O)N(c3nccs3)CC2)C1 [Cpd 19]
Ans. 9.10

Qu. Requested read-out: pKd. Entry: O=C(c1ccc2c(ccn2-c2ccc(F)cc2)c1)N1CC(N2CCN(c3cscn3)C(=O)C2)C1 [Cpd 6]
Ans. 6.21

Qu. Requested read-out: pKd. Entry: O=C(c1ccc2c(ccn2-c2ccc(F)cc2)c1)N1CC(N2CCC(=O)N(c3ncccn3)CC2)C1 [Cpd 20]
Ans. 6.55
